Assay Notes: Growth inhibition of human HSF cells at 50 ug/ml after 48 hrs by spectrophotometric analysis
Type: cell-based
Test Settings: read-out: GI
Lab note: compare inhibition at 48 h, 50 ug/ml against 50%. Equal or greater, write satisfied. Smaller, write not satisfied.

*Q* Does inhibition at 48 h, 50 ug/ml meet or surpass 50% for Cc1ccccc1N1CCn2c1nnc(-c1ccco1)c2=O ?
*A* not satisfied

*Q* Does inhibition at 48 h, 50 ug/ml meet or surpass 50% for O=c1c(-c2ccco2)nnc2n1CCN2c1c(Cl)cccc1Cl ?
*A* not satisfied

*Q* Does inhibition at 48 h, 50 ug/ml meet or surpass 50% for O=c1c(-c2ccco2)nnc2n1CCN2c1ccccc1Cl ?
*A* not satisfied

*Q* Does inhibition at 48 h, 50 ug/ml meet or surpass 50% for COc1ccccc1N1CCn2c1nnc(-c1ccco1)c2=O ?
*A* not satisfied

*Q* Does inhibition at 48 h, 50 ug/ml meet or surpass 50% for O=c1c(-c2ccco2)nnc2n1CCN2c1cccc(Cl)c1 ?
*A* satisfied

*Q* Does inhibition at 48 h, 50 ug/ml meet or surpass 50% for Cc1cccc(N2CCn3c2nnc(-c2ccco2)c3=O)c1C ?
*A* not satisfied

*Q* Does inhibition at 48 h, 50 ug/ml meet or surpass 50% for O=c1c(-c2ccco2)nnc2n1CCN2c1ccc(Cl)cc1 ?
*A* satisfied
